- assay summary: CD-1 mice plasma pharmacokinetics, bendamustine C14 ester albumin nanoparticle i.v.
- Type: in vivo
- experimental parameters: mouse, iv, 55 mg/kg, 55 mg-eq/kg, Mean n = 3, read-out: AUC0-6 of C14 Ester in plasma
- Experimental: Another embodiment of the invention, bendamustine C14 ester was formulated into a nanoparticle intraveneous formulation according to the methods described above and administered to CD-1 mice. The amount of bendamustine (BM1) and bendamustine C14 ester was determined in the mice plasma.
measure name: AUC(0-t) (ng·h/mL)

1) CCCCCCCCCCCCCCOC(=O)CCCc1nc2cc(N(CCCl)CCCl)ccc2n1C ... 48900

---

- assay summary: CD-1 mice plasma pharmacokinetics, bendamustine C14 ester albumin nanoparticle i.v.
- Type: in vivo
- experimental parameters: mouse, iv, 30 mg/kg, 30 mg-eq/kg, Mean n = 3, read-out: AUC0-6 of C14 Ester in plasma
measure name: AUC(0-t) (ng·h/mL)

1. CCCCCCCCCCCCCCOC(=O)CCCc1nc2cc(N(CCCl)CCCl)ccc2n1C [Bendamustine C14 Ester] ... 31700
